Please provide measured pIC50 for the entries that follow.
Target: cyclin D1 (human), P24385
Sequence (P24385 whole entry): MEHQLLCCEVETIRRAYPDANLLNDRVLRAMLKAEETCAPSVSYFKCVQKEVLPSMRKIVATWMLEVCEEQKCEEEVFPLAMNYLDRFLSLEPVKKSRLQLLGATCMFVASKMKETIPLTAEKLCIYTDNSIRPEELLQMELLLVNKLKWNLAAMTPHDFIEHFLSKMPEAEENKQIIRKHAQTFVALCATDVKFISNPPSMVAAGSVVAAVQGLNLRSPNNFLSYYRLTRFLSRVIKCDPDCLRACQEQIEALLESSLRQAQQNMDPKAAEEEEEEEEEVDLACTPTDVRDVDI
Assay: competition
Settings: modification not given
pIC50: −log10 of the molar value.

Consider the worked cases shown below.
{"binder": "HSKRRLDL", "reported result": "< 3.70"}
{"binder": "HSKRRLFG", "reported result": "< 3.70"}

Okay, next one:
Query: Read the entry PVKRRLDL [E2F1 PVKRRLDL] and write its reported pIC50.
Response: < 4.00
